List of pEC50 values.
# tested on: T1, human NKG2D expressed on cells (human, UniProt P26718 1-216)
# T1 construct: the cell type is named under assay; also called NKG2D on NK92 cells; HEK293T human NKG2D
# T1 chain: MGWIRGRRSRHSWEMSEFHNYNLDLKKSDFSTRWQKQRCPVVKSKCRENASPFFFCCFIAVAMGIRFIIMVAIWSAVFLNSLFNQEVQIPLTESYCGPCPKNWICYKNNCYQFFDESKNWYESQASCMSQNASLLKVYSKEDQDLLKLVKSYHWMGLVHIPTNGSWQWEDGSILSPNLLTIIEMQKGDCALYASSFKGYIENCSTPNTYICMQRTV
# test method notes: flow cytometry; CD8 T cells in PBMCs
pEC50: −log10 of the molar value.
measured quantity: pEC50

binder	measured quantity	quantitative result
anti-NKG2D antibody clone 230 (antibody, V domains shown, From transgenic rabbits) VH: QQLEQSGGGLVKPGGSLELCCIASGFDFSTYWMTWVRQAPGKGLEWIGCIHGGGSGTTSYASWVNGRFTLSRDIDQSTGCLQLTSLTAADTAMYYCARPGYRSWSKTFDLWGQGTMVTVSS VL: DIQMTQSPSSLSASVGDRVTITCQANQDISNALNWYQQKPGKAPKLLIYAASSLQSGVPSRFSGSGSGTDFTLTISSLQPEDFAAYYCQQAASFPLTFGGGTKVEIK	pEC50	9.08
anti-NKG2D antibody clone 320 (antibody, V domains shown, From transgenic rabbits; also called 320 IgG) VH: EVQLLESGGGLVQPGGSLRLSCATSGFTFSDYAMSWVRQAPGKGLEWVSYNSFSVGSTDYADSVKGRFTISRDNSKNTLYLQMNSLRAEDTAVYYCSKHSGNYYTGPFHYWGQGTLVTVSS VL: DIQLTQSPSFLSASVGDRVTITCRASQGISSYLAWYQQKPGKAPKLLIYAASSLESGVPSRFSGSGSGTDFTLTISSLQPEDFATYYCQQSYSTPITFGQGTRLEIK	pEC50	7.88
anti-NKG2D antibody clone 013 (antibody, V domains shown, From transgenic rabbits) VH: EQSGGGAGGGLVKPGGSLELCCKASGFDFSIYWMSWVRQSPGKGLEWIGRIYGGSSDYTAYASWVNGRFTLSRDIDQSTGCLQLNSLTAADTAMYYCVRLNPSFSRSFDYWGQGTLVTVSS VL: DIQMTQSPSSVSASVGDRVTITCRASQGIFSWLVWYQQKPGKAPELLMYGASTLQSGVPSRFSGSGSGTDFTLTISSLQPEDFATYYCQQGYSTPYTFGQGTKVEIK	pEC50	6.58
anti-NKG2D antibody clone 296 (antibody, V domains shown, From transgenic rabbits) VH: EVQLLESGGGLVQPGGSLRLSCAASGFTFSSYAMSWVRQAPGKGLEWVSAIGIGGGGTYYADSVKGRFTISRDNSKNTLYLQMNSLRAEDTAVYHCAKGASFDFINFFPYWGQGTLVTVSS VL: DIQMTQSPSSLSASVGDRVTITCRASQGISNDLAWYQQKPGKAPKLLIYAASSLQSGVPSRFSGSGSGTDFTLTISSLQPEDFATYYCQQTYSTPLTFGGGTKVEIK	pEC50	9.89
